Each entry below lists one item and its recorded pEC50 value.
# experimental.system: PRMT5-MEP50 enzyme complex (Homo sapiens)
# Construct: 1.25 nM of Full-length (FL)-PRMT5-MEP50 enzyme complex
# Sequence (O14744 whole entry): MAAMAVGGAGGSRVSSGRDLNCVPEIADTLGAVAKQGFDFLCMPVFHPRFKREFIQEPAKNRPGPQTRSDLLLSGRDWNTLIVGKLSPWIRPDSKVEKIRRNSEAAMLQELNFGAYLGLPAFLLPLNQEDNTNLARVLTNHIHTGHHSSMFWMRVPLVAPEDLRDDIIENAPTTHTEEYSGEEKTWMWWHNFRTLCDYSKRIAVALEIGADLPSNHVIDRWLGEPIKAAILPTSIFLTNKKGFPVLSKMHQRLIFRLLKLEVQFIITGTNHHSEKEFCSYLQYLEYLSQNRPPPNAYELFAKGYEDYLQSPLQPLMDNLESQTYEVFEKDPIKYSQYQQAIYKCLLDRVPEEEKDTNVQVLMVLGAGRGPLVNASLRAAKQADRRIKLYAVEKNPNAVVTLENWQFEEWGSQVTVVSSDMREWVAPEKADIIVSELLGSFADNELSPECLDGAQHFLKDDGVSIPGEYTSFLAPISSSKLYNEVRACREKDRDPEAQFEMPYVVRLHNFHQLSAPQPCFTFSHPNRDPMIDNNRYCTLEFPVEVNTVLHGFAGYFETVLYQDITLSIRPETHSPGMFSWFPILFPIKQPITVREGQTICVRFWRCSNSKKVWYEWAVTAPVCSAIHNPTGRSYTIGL
# Sequence (Q9BQA1 whole entry partner): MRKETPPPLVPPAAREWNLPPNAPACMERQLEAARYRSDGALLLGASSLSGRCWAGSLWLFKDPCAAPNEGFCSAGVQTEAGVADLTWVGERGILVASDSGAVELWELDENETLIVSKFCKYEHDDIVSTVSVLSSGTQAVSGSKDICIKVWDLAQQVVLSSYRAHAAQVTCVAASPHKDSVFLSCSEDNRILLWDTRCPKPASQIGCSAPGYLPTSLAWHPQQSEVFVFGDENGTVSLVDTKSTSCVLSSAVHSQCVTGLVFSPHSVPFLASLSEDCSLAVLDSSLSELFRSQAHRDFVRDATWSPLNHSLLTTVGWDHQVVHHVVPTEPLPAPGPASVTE
# assay.method.text: PRMT5-MEP50 Enzyme Methylation Assay
# condition.set: recombinant full-length PRMT5-MEP50 1.0 nM, 75 nM biotinylated H4R3(Me1) peptide, 15 μM SAM; 60 minutes pre-incubation, 150 minutes at 37° C.
pEC50: −log10 of the molar value.
test.readout: pEC50

>  <molecule>
CCc1nc2nc(C(=O)N3CC[C@H](N4CCc5ccccc5C4)[C@@H](O)C3)cn2cc1Br

>  <test.readout>
pEC50

>  <reading>
8.82

$$$$
>  <molecule>
O=C(c1cn2cc(C3CC3(F)F)cnc2n1)N1CC[C@H](N2CCc3ccccc3C2)[C@@H](O)C1 (some centres unmarked)

>  <test.readout>
pEC50

>  <reading>
8.80

$$$$
>  <molecule>
CC(=O)N1CCC(Nc2cc(C(=O)N3CC[C@H](N4CCc5ccccc5C4)[C@@H](O)C3)c(F)cn2)CC1

>  <test.readout>
pEC50

>  <reading>
9.05

$$$$
>  <molecule>
[2H]C1([2H])c2ccccc2CCN1[C@H]1CCN(C(=O)c2cc(NC3CCN(C(C)=O)CC3)ncc2F)C[C@@H]1O

>  <test.readout>
pEC50

>  <reading>
9.05

$$$$
>  <molecule>
O=C(c1cn2cc(C3CC3)cnc2n1)N1CC[C@H](N2CCc3ccccc3C2)[C@@H](O)C1

>  <test.readout>
pEC50

>  <reading>
8.89

$$$$

----------
# experimental.system: PRMT5 (Homo sapiens, UniProt O14744)
# Construct: endogenous in cells
# Sequence (O14744 whole entry): as the sequence (O14744 whole entry) above
# Sequence (Q9BQA1 whole entry partner): as the sequence (Q9BQA1 whole entry partner) above
# assay.method.text: PRMT5 Cell Target Engagement (TE) Assay
# condition.set: MCF-7 cells, treated for 3 days; symmetrically dimethylated (SDMA) nuclear proteins by high content imaging
pEC50: −log10 of the molar value.
Please mark Satisfied if the recorded pEC50 is equal to or greater than 8, and Not satisfied if it falls below.

>  <compound>
O=C(c1cn2cc(C3CC3(F)F)cnc2n1)N1CC[C@H](N2CCc3ccccc3C2)[C@@H](O)C1 (stereo partly drawn)

>  <experimental.system>
PRMT5 (Homo sapiens, UniProt O14744)

>  <cat>
Satisfied

$$$$
>  <compound>
[2H]C1([2H])c2ccccc2CCN1[C@@H]1CCN(C(=O)c2cc(NC3CCN(C(C)=O)CC3)ncc2F)C[C@H]1O

>  <experimental.system>
PRMT5 (Homo sapiens, UniProt O14744)

>  <cat>
Not satisfied

$$$$
>  <compound>
[2H]C1([2H])c2ccccc2CCN1[C@H]1CCN(C(=O)c2cc(NC3CCN(C(C)=O)CC3)ncc2F)C[C@@H]1O

>  <experimental.system>
PRMT5 (Homo sapiens, UniProt O14744)

>  <cat>
Satisfied

$$$$

----------
# experimental.system: PRMT5 (Homo sapiens)
# Construct: endogenous in cells
# assay.method.text: PRMT5 Cell Target Engagement (TE) Assay
# condition.set: MCF-7 cells, treated for 3 days; symmetrically dimethylated (SDMA) nuclear proteins by high content imaging
pEC50: −log10 of the molar value.
Each entry below lists one item and its recorded pEC50 value.
test.readout: pEC50

>  <molecule.smiles>
CCc1nc2nc(C(=O)N3CC[C@H](N4CCc5ccccc5C4)[C@@H](O)C3)cn2cc1Br

>  <reading>
7.82

$$$$
>  <molecule.smiles>
O=C(c1cn2cc(C3CC3)cnc2n1)N1CC[C@H](N2CCc3ccccc3C2)[C@@H](O)C1

>  <reading>
8.17

$$$$
>  <molecule.smiles>
CC(=O)N1CCC(Nc2cc(C(=O)N3CC[C@H](N4CCc5ccccc5C4)[C@@H](O)C3)c(F)cn2)CC1

>  <reading>
8.16

$$$$

Where do these numbers come from? They come from patent US12595262B2.
